# measuredTarget: T1, PREP1HD;PBX1HD (;, UniProt P55347;P40424 240-344;227-317, |)
# T1 sequence 1: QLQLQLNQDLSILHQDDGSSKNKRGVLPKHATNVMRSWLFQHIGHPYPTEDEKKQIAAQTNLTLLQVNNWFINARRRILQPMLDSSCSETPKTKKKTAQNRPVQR
# T1 sequence 2: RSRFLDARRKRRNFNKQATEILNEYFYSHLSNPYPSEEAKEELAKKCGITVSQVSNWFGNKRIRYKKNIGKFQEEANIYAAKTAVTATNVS
# experimentDescription: fluorescence polarization; PREP1HD titrated into preformed PBX1HD (0.3 uM):PMH; FP and EMSA: 20 mM Na/K phosphate pH 7.2, 150 mM NaCl, 5% glycerol, 1 mM TCEP, room temperature (FP 9 nM DNA, 30 min; EMSA gel run at 4 C in 0.5x TBE); NMR: 20
# cond: protein: recombinant;recombinant; tags: GST cleaved (pGEX-6P);GST cleaved (pGEX-6P); copies: 1;1; label: 5' 6-FAM (FP); unlabeled in EMSA and NMR
endpoint: pKd
Numbers only, as −log10 of the molar value.

The reported pKd of the binder PMH (dsDNA) DNA 1: AGTGATTGACAGATTC DNA 2: GAATCTGTCAATCACT was 5.72
